- protocol-notes: chemical genetic growth profiling, strain panel (AID 1159580);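 further: tested at 20 µM; growth read once vehicle control cultures reached saturation at 30 °C; 1 = growth at the plate median or of vehicle wells; lower values mean less growth of the strain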
- condition-parameters: S. cerevisiae deletion strains, growth OD, locus YNL271C, strain bni1, stronger effect = lower value
About 2,000 (36%) of roughly 5,500 compounds were called active. Roughly 18% stayed inconclusive and do not appear here. This is one part of the list.
measured-attribute: normalized growth
Just the number, please, no unit after it.

**Query** Quick check: normalized growth of C#C[C@]1(O)CCC2C3CCC4=CC(=O)CC[C@@H]4C3CC[C@@]21CC (some centres undefined) ?
**Result** 0.982

**Query** # lookup: normalized growth of `O=c1cc(CO)occ1O`
**Result** 1.02

**Query** Recorded normalized growth of C[C@@H]1OC(O[C@H]2[C@H](O)[C@@H](O)[C@H](OC[C@H]3O[C@@H](OC(=O)[C@]45CCC(C)(C)CC4C4=CCC6[C@@]7(C)CC[C@H](OC8OC[C@H](O)[C@H](O)[C@H]8OC8O[C@@H](C)[C@H](O)[C@@H](O)[C@H]8O)[C@@](C)(CO)C7CC[C@@]6(C)[C@]4(C)CC5)[C@H](O)[C@@H](O)[C@@H]3O)O[C@@H]2CO)[C@H](O)[C@H](O)[C@H]1O (some centres undefined) , please.
**Result** 0.987

**Query** // normalized growth lookup, key: CC(=O)O[C@@H]1CC[C@@]2(C)C(CC[C@]3(C)C2CC=C2C4CC(C)(C)CC[C@]4(C(=O)O)CC[C@]23C)C1(C)C (some centres undefined)
**Result** 0.981

Every entry's value here was drawn from PubChem BioAssay AID1159580.
